Target under test: mushroom tyrosinase (mTYR)
Procedure text: Tyrosinase inhibition assay (L-tyrosine substrate)
Type: biochemical
Settings: phenolic acid and eleutheroside standards (Table 6)
Marks after values point to notes of the source that are not given here.
Readout name: IC50 mTYR

{"columns": ["Molecule", "Target under test", "IC50 mTYR"],
 "data": [
  ["O=C(O)c1ccc(O)c(O)c1", "mushroom tyrosinase (mTYR)", "134.57 ± 3.46 ^b µg/mL"],
  ["COc1cc(/C=C/CO)cc(OC)c1O[C@@H]1O[C@H](CO)[C@@H](O)[C@H](O)[C@H]1O [Eleutheroside B, syringin 4-β-D-glucoside]", "mushroom tyrosinase (mTYR)", "no activity"],
  ["COc1cc(C2OCC3C(c4cc(OC)c(O[C@@H]5O[C@H](CO)[C@@H](O)[C@H](O)[C@H]5O)c(OC)c4)OCC23)cc(OC)c1O[C@@H]1O[C@H](CO)[C@@H](O)[C@H](O)[C@H]1O (single isomer, unassigned; (-)) [Eleutheroside E]", "mushroom tyrosinase (mTYR)", "no activity"],
  ["O=C(O)/C=C/c1ccc(O)c(O)c1", "mushroom tyrosinase (mTYR)", "56.22 ± 0.67 ^a µg/mL"]
]}

Turning to the following molecule.
Report value only: IC50 mTYR, mushroom tyrosinase (mTYR), O=C(/C=C/c1ccc(O)c(O)c1)O[C@@H]1C[C@](O)(C(=O)O)C[C@@H](O)[C@H]1O
107.52 ± 3.46 ^ab µg/mL

----------
Test system: SK-MEL-30 melanoma cells
Procedure text: MTT viability assay, SK-MEL-30
Assay type: cell-based, human
Settings: Homo sapiens, SK-MEL-30, 24 h; read-out: IC50 (50% of maximal inhibition of viability)
Readout name: IC50 (nM)
Numbers only, in nM.

Assign IC50 to the following record: COc1cccc2c1C(=O)c1c(O)c3c(c(O)c1C2=O)C[C@@](O)(C(=O)CO)C[C@@H]3O[C@H]1C[C@H](N)[C@H](O)[C@H](C)O1
1520

Measured values drawn from paper PMC11313944 for this set.
